From: ChEMBL document CHEMBL2346524

- assay system: Epidermal growth factor receptor (Homo sapiens, UniProt P00533, L858R)
- Sequence (P00533 25-1210 L858R limits assumed): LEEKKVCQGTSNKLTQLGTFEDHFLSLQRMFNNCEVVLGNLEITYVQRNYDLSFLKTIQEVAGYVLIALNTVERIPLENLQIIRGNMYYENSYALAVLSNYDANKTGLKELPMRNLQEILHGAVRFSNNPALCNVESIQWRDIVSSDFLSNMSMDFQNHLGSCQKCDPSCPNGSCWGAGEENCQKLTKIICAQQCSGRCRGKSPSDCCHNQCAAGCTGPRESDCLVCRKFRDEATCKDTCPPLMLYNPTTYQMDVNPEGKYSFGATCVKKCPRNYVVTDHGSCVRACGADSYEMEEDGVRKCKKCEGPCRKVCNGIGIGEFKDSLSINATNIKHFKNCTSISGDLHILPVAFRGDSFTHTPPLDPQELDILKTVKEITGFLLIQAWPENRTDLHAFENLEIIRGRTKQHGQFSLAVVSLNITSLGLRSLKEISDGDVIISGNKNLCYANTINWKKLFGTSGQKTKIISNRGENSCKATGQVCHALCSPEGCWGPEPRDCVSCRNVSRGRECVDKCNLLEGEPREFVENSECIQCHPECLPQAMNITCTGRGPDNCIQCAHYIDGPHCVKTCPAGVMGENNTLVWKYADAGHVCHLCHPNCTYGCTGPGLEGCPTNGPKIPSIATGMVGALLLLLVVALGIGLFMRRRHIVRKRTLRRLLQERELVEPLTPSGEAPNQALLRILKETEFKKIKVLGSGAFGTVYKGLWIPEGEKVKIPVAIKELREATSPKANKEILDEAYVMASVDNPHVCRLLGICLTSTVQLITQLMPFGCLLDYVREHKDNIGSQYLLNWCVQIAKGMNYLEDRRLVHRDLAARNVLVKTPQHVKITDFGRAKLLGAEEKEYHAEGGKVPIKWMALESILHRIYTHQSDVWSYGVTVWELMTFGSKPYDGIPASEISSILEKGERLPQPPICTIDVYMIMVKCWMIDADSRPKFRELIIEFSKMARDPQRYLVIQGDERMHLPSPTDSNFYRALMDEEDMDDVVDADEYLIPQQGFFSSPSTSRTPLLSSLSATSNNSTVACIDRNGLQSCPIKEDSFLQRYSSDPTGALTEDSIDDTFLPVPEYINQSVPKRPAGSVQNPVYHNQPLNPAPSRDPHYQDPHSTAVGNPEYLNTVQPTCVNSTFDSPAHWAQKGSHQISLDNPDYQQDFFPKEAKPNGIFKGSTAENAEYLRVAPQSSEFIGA
- assay explanation: Inhibition of human GST-tagged EGFR L834R mutant expressed in Sf9 cells by luminescence assay
pIC50: −log10 of the molar value.
quantity: pIC50

smiles input | assay system | readout relation | experimental value
CN(C)CC(=O)Nc1cccc(-c2c(-c3ccccc3)oc3ncnc(N[C@H](CO)c4ccccc4)c23)c1 | Epidermal growth factor receptor (Homo sapiens, UniProt P00533, L858R) | = | 8.40
COC(=O)[C@@H](Nc1ncnc2oc(-c3ccccc3)c(-c3ccccc3)c12)c1ccccc1 | Epidermal growth factor receptor (Homo sapiens, UniProt P00533, L858R) | = | 5.84
CN(C)CCCC(=O)Nc1cccc(-c2c(-c3ccccc3)oc3ncnc(N[C@H](CO)c4ccccc4)c23)c1 | Epidermal growth factor receptor (Homo sapiens, UniProt P00533, L858R) | = | 7.47
CC[C@@H](Nc1ncnc2oc(-c3ccccc3)c(-c3ccccc3)c12)c1ccccc1 | Epidermal growth factor receptor (Homo sapiens, UniProt P00533, L858R) | < | 5.00
CC(C)CCCC(=O)Nc1cccc(-c2c(-c3ccccc3)oc3ncnc(N[C@H](CO)c4ccccc4)c23)c1 | Epidermal growth factor receptor (Homo sapiens, UniProt P00533, L858R) | < | 4.60
